- System tested: adenosine A2A receptor (Homo sapiens, UniProt P29274)
- Construct: purchased Receptor Biology Inc
- Sequence (P29274 whole entry): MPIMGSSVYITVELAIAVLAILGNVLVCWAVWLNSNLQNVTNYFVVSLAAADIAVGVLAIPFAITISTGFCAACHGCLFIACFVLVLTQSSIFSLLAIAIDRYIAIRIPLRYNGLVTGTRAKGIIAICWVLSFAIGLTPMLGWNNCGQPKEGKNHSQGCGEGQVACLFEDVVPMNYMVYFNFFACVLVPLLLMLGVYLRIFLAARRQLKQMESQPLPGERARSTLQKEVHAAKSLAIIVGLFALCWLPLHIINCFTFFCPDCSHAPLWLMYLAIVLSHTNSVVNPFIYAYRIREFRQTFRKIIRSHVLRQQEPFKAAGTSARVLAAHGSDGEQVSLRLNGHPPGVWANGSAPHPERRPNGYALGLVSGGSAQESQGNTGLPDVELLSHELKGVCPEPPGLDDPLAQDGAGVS
- Method summary: Measurement of the binding ability to adenosine A2A receptor (3H-CGS21680 displacement, membrane sample)
- Condition info: read-out: K1(nM) A2A
- Method: Measurement of the Binding Ability to Adenosine A2A Receptor An experiment of inhibition of binding to adenosine A2A receptor was conducted using a membrane sample (Receptor Biology Inc.) where an adenosine A2A receptor cDNA was expressed in excess. […] Thereafter, the glass fiber filter was transferred to a vial, scintillator was added thereto, and the radioactivity on the filter was measured by a liquid scintillation counter. […]
Measurement type: Ki (nM)

[a] Nc1nc(-c2ccco2)c(-c2ccncc2)c(=O)[nH]1 [Example 2]
[b] Cn1c(N)nc(-c2ccco2)c(-c2ccncc2)c1=O [Example 7]
query: Lower value for measured Ki? Options: a , b # reply format: chosen label
result: a

---

- System tested: human adenosine A1 receptor (Homo sapiens, UniProt P30542)
- Construct: expressed in transfected cells; host or cells: CHOK1 cells (membrane sample)
- Sequence (P30542 whole entry): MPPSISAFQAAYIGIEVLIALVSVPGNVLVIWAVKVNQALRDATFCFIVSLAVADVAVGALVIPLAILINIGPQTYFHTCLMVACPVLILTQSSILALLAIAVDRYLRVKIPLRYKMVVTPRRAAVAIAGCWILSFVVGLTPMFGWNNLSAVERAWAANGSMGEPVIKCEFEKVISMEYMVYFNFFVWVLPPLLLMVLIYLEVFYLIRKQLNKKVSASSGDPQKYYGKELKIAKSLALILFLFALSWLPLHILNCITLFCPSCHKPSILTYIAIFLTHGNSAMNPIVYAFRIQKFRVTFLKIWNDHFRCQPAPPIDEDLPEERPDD
- Method summary: Measurement of the binding ability to adenosine A1 receptor (3H-CCPA displacement, CHOK1 membranes)
- Condition info: read-out: K1(nM) A1
Measurement type: Ki (nM)

Nc1nc(-c2ccco2)c(-c2ccncc2)c(=O)[nH]1 = 1110
Cn1c(N)nc(-c2ccco2)c(-c2ccncc2)c1=O = 966
